Overview of recorded pEC50 for various compounds
Test system: HCV 1b-377-neo replicon cells
procedure.text: HCV replicon FRET assay
Assay type: cell-based
experimental.parameters: Hepatitis C virus; HCV replicon; read-out: Activity (EC50)
pEC50: −log10 of the molar value.
property.name: pEC50

• O=C(Cc1cccnc1)Nc1ccc(/C=C/c2ccc(NC(=O)[C@@H]3CCCN3C(=O)Cc3cccnc3)cc2)cc1 = 7.05 to 10.00
• CC(C)C(=O)N1CCC[C@H]1C(=O)Nc1ccc(/C=C/c2ccc(NC(=O)[C@@H]3CCCN3C(=O)c3cccnc3)cc2)cc1 = 7.05 to 10.00
• CC(=O)N1CCC[C@H]1C(=O)Nc1ccc(/C=C/c2ccc(NC(=O)[C@@H]3CCCN3C(=O)c3ccccc3NCc3ccccc3)cc2)cc1 = 5.00 to 6.00
• [N-]=[N+]=Nc1cccc(CC(=O)N2CCC[C@H]2C(=O)Nc2ccc(/C=C/c3ccc(NC(=O)[C@@H]4CCCN4C(=O)Cc4ccccc4)cc3)cc2)c1 = 7.05 to 10.00
• CCCOc1ccccc1C(=O)N1CCC[C@H]1C(=O)Nc1ccc(/C=C/c2ccc(NC(=O)[C@@H]3CCCN3C(=O)c3ccccc3OCCC)cc2)cc1 = 5.00 to 6.00
• Cn1cc(C(=O)N2CCC[C@H]2C(=O)Nc2ccc(/C=C/c3ccc(NC(=O)[C@@H]4CCCN4C(=O)c4cn(C)c5ccccc45)cc3)cc2)c2ccccc21 = 6.00 to 7.00

====

System: HCV 1b-377-neo replicon cells
procedure.text: HCV replicon FRET assay
Assay type: cell-based
experimental.parameters: Hepatitis C virus; HCV replicon; read-out: Activity (EC50)
pEC50: −log10 of the molar value.
property.name: pEC50

• CC(C)NC(=O)N1CCC[C@H]1C(=O)Nc1ccc(/C=C/c2ccc(NC(=O)[C@@H]3CCCN3C(=O)NC(C)C)cc2)cc1 = 6.00 to 7.00
• O=C(NC1CCCC1)O[C@@H]1C[C@@H](C(=O)Nc2ccc(/C=C/c3ccc(NC(=O)[C@@H]4C[C@@H](O)CN4C(=O)OCc4ccccc4)cc3)cc2)N(C(=O)OCc2ccccc2)C1 = 5.00 to 6.00
• O=C(CC1CC1)Nc1ccc(/C=C/c2ccc(NC(=O)[C@@H]3CCCN3C(=O)[C@H]3CCCO3)cc2)cc1 = 5.00 to 6.00
• CC(C)(C)OC(=O)N1c2ccccc2C[C@H]1C(=O)Nc1ccc(/C=C/c2ccc(NC(=O)[C@@H]3Cc4ccccc4N3C(=O)OC(C)(C)C)cc2)cc1 = 6.00 to 7.00
• CCc1ccccc1C(=O)N1CCC[C@@H]1C(=O)Nc1ccc(/C=C/c2ccc(NC(=O)[C@@H]3CCCN3C(=O)c3ccccc3CC)cc2)cc1 = 5.00 to 6.00
• Cc1nc(C)c(C(=O)N2CCC[C@H]2C(=O)Nc2ccc(/C=C/c3ccc(NC(=O)[C@@H]4CCCN4C(=O)c4sc(C)nc4C)cc3)cc2)s1 = 6.00 to 7.00
• CC(C)(C)NC(=O)O[C@@H]1C[C@@H](C(=O)Nc2ccc(/C=C/c3ccc(NC(=O)[C@@H]4C[C@@H](O)CN4C(=O)OCc4ccccc4)cc3)cc2)N(C(=O)OCc2ccccc2)C1 = 5.00 to 6.00
• O=C(Nc1ccc(/C=C/c2ccc(NC(=O)C3CC(=O)N(CCc4cccs4)C3)cc2)cc1)C1CC(=O)N(CCc2cccs2)C1 (centres unmarked) = 5.00 to 6.00
• CSCC(=O)N1CCC[C@H]1C(=O)Nc1ccc(/C=C/c2ccc(NC(=O)[C@@H]3CCCN3C(=O)CSC)cc2)cc1 = 7.05 to 10.00
• COc1ccccc1C(=O)N1CCC[C@H]1C(=O)Nc1ccc(/C=C/c2ccc(NC(=O)[C@@H]3CCCN3C(=O)c3ccccc3OC)cc2)cc1 = 5.00 to 6.00
• O=C(Nc1ccc(/C=C/c2ccc(NC(=O)[C@@H]3CCCN3C(=O)OCc3ccccc3)cc2)cc1)[C@@H]1CCCN1C(=O)OCc1ccccc1 = 7.05 to 10.00
• O=C(Nc1ccc(/C=C/c2ccc(N(C(=O)c3cccs3)C(=O)[C@@H]3CCCN3C(=O)c3cccs3)cc2)cc1)[C@@H]1CCCN1C(=O)c1cccs1 = 7.05 to 10.00
• CN1CCC[C@H]1C(=O)N1CCC[C@H]1C(=O)Nc1ccc(/C=C/c2ccc(NC(=O)[C@@H]3CCCN3C(=O)[C@@H]3CCCN3C)cc2)cc1 = 5.00 to 6.00
• O=C(Nc1ccc(/C=C/c2ccc(NC(=O)[C@@H]3CCCN3C(=O)c3ccco3)cc2)cc1)[C@@H]1CCCN1C(=O)c1ccco1 = 6.00 to 7.00
• CC(=O)N1CC=C[C@H]1C(=O)Nc1ccc(/C=C/c2ccc(NC(=O)[C@@H]3C=CCN3C(=O)Cc3ccccn3)cc2)cc1 = 7.05 to 10.00
• CN(C)[C@@H](C(=O)N1CCC[C@H]1C(=O)Nc1ccc(/C=C/c2ccc(NC(=O)[C@@H]3CCCN3C(=O)[C@@H](c3ccccc3)N(C)C)cc2)cc1)c1ccccc1 = 7.05 to 10.00
• Cc1nc(-c2cccnc2)sc1C(=O)N1CCC[C@H]1C(=O)Nc1ccc(/C=C/c2ccc(NC(=O)[C@@H]3CCCN3C(=O)c3sc(-c4cccnc4)nc3C)cc2)cc1 = 5.00 to 6.00
• O=C(Nc1ccc(/C=C/c2ccc(NC(=O)[C@@H]3CCCN3C(=O)CC3CC3)cc2)cc1)[C@@H]1CCCN1C(=O)CC1CC1 = 7.05 to 10.00
• Cc1nocc1C(=O)N1CCC[C@H]1C(=O)Nc1ccc(/C=C/c2ccc(NC(=O)[C@@H]3CCCN3C(=O)c3conc3C)cc2)cc1 = 7.05 to 10.00
• CSc1ncccc1C(=O)N1CCC[C@H]1C(=O)Nc1ccc(/C=C/c2ccc(NC(=O)[C@@H]3CCCN3C(=O)c3cccnc3SC)cc2)cc1 = 6.00 to 7.00
• O=C(Cc1ccccc1)NCC(=O)Nc1ccc(/C=C/c2ccc(NC(=O)[C@@H]3CCCN3C(=O)Cc3ccccc3)cc2)cc1 = 6.00 to 7.00
• CCc1ccnc(C(=O)N2CCC[C@H]2C(=O)Nc2ccc(/C=C/c3ccc(NC(=O)[C@@H]4CCCN4C(=O)c4cc(CC)ccn4)cc3)cc2)c1 = 6.00 to 7.00
• O=C(Nc1ccc(/C=C/c2ccc(NC(=O)[C@@H]3CCCN3C(=O)Cc3ccccc3)cc2)cc1)c1ccccc1 = 7.05 to 10.00

====

System: HCV 1b-377-neo replicon cells
procedure.text: HCV replicon FRET assay
Format: cell-based
experimental.parameters: Hepatitis C virus; HCV replicon; read-out: Activity (EC50)
pEC50: −log10 of the molar value.
property.name: pEC50

• COc1ccc2[nH]cc(CC(=O)N3CCC[C@H]3C(=O)Nc3ccc(/C=C/c4ccc(NC(=O)[C@@H]5CCCN5C(=O)Cc5c[nH]c6ccc(OC)cc56)cc4)cc3)c2c1 = 7.05 to 10.00
• O=C(Nc1ccc(/C=C/c2ccc(NC(=O)[C@@H]3CCCN3C(=O)c3cccnc3Sc3ccccc3)cc2)cc1)[C@@H]1CCCN1C(=O)c1cccnc1Sc1ccccc1 = 5.00 to 6.00
• CCC(=O)N1CCC[C@H]1C(=O)Nc1ccc(/C=C/c2ccc(NC(=O)[C@@H]3CCCN3C(=O)Cc3cccs3)cc2)cc1 = 7.05 to 10.00
• O=C(Nc1ccc(/C=C/c2ccc(NC(=O)[C@@H]3CCCN3C(=O)c3ccccc3Oc3ccccc3)cc2)cc1)[C@@H]1CCCN1C(=O)c1ccccc1Oc1ccccc1 = 6.00 to 7.00
• O=C(Nc1ccc(/C=C/c2ccc(NC(=O)[C@@H]3CCCN3S(=O)(=O)Cc3cccc(C(F)(F)F)c3)cc2)cc1)[C@@H]1CCCN1S(=O)(=O)Cc1cccc(C(F)(F)F)c1 = 5.00 to 6.00

====

Tested on: HCV 1b-377-neo replicon cells
procedure.text: HCV replicon FRET assay
Assay type: cell-based
experimental.parameters: Hepatitis C virus; HCV replicon; read-out: Activity (EC50)
pEC50: −log10 of the molar value.
property.name: pEC50

• CC(=O)N1CCC[C@H]1C(=O)Nc1ccc(/C=C/c2ccc(NC(=O)[C@@H]3CCCN3C(=O)Cc3cccnc3)cc2)cc1 [Example 50] = 7.05 to 10.00
• O=C(Nc1ccc(/C=C/c2ccc(NC(=O)[C@@H]3CCCN3C(=O)c3ncoc3-c3ccccc3)cc2)cc1)[C@@H]1CCCN1C(=O)c1ncoc1-c1ccccc1 [Example 184] = 6.00 to 7.00
• Cc1ccccc1S(=O)(=O)N1CCC[C@H]1C(=O)Nc1ccc(/C=C/c2ccc(NC(=O)[C@@H]3CCCN3S(=O)(=O)c3ccccc3C)cc2)cc1 [Example 282] = 5.00 to 6.00
• O=C(Nc1ccc(/C=C\c2ccc(NC(=O)[C@@H]3CCCN3C(=O)Cc3ccccc3)cc2)cc1)[C@@H]1CCCN1C(=O)Cc1ccccc1 [Example 5] = 7.05 to 10.00
• O=C(Nc1ccc(/C=C/c2ccc(NC(=O)[C@@H]3CCCN3C(=O)c3cccnc3)cc2)cc1)[C@@H]1CCCN1C(=O)c1cccnc1 [Example 59] = 6.00 to 7.00
• O=C(Nc1ccc(/C=C/c2ccc(NC(=O)[C@@H]3CCCN3C(=O)c3cccc4c3Cc3ccccc3-4)cc2)cc1)[C@@H]1CCCN1C(=O)c1cccc2c1Cc1ccccc1-2 [Example 165] = 5.00 to 6.00

# credit: patent US8143288B2
